What 229E Inhibition rate was measured for each of the following?
System: HCoV-229E
Set-up: species or system Huh-7; HTS, protection from HCoV-229E induced cell death, luminescent cell viability (CellCounting-Lite 2.0), inhibition rate
Conditions: 24 h post infection, 1 h compound pre-incubation; 10 µM; inhibitor
In all, about 3,300 compounds went through this assay and about 95 (3%) showed an effect of 50% or more. The sample as a whole holds a higher share of strong results than the screen did.
Give bare numbers, in %.

C/C=C1/CN2[C@H]3Cc4c([nH]c5ccccc45)[C@]2(O)C[C@@H]1[C@@]3(CO)C(=O)OC [16-Epivoacarpine]
7.1
O=C(OCc1ccccc1)c1ccccc1 [Benzyl benzoate]
12.5
COc1cc(OC)cc(OC)c1
55.2
C=C1C(=O)[C@]23[C@H](O)[C@H]1CC[C@H]2[C@@]12CO[C@]3(O)[C@@H](O)[C@@H]1C(C)(C)CC[C@@H]2O
0
C=C1C(=O)[C@@]23[C@H](O)C[C@@H]4C(C)(C)CC[C@H](O)[C@@]4(CO)[C@@H]2CC[C@@H]1[C@H]3O
0

Please give 229E Inhibition rate for each item listed below.
1. COc1cc(O)cc(OC)c1
2. COC(=O)CC[C@@H](C)[C@H]1CC[C@H]2[C@@H]3[C@H](O)C[C@@H]4C[C@H](O)CC[C@]4(C)[C@H]3C[C@H](O)[C@]12C [Methyl cholate]
3. C=C1C(=O)[C@@]23[C@@H]4OC5O[C@@]2(O)[C@@H](O)[C@@H]2C(C)(C)CC[C@@H](O)[C@]52[C@@H]3CC[C@@H]14
4. O=C(OCc1ccccc1)c1ccccc1O [Benzyl salicylate]

1: 32.7; 2: 54.9; 3: 95.6; 4: 24.5

Batch lookup, 229E Inhibition rate per entry.
1. O=C(O)c1ccccc1
2. CC1(C)O[C@H]2CC(=O)OC[C@]23[C@H]2CC[C@@]4(C)[C@H](c5ccoc5)OC(=O)[C@H]5O[C@]54[C@]2(C)[C@@H](O)C(=O)[C@@H]13
3. CC(C)(O)[C@@H]1CC[C@](C)([C@H]2[C@@H](O)C[C@@]3(C)[C@@H]4C[C@H](O)[C@H]5C(C)(C)[C@@H](O[C@@H]6OC[C@@H](O)[C@H](O)[C@H]6O[C@@H]6O[C@H](CO)[C@@H](O)[C@H](O)[C@H]6O)CC[C@@]56C[C@@]46CC[C@]23C)O1 [Astragaloside III]
4. COc1ccc(-c2oc3c(CC=C(C)C)c(O)cc(O)c3c(=O)c2O)cc1
5. O=C(O)c1ccc(C(=O)O)cc1

1: 11.6; 2: 0; 3: 10.8; 4: 8.6; 5: 10.1
